- Tested on: ATXN3 transcripts containing exon 4 (E4E5)
- experimental.protocol: ATXN3 quantitative splicing assay (qPCR, SK-N-MC cells)
- Type: cell-based
- assay.setup: Homo sapiens, 24 h treatment, qPCR E4E5 primers/probe, read-out: ATXN3 Potency - Splicing E4E5 IC50
pIC50: −log10 of the molar value.
parameter.measured: pIC50

Use the examples below as a reference point.
[[record]]
compound = "Cc1c(CC(N)CC2(F)CC2)sc2c(NCc3cccs3)cnnc12 (stereo not drawn)"
assay_result = "5.00 to 5.30"

[[record]]
compound = "Cc1c(CC(N)=O)sc2c(NCc3cccs3)cnnc12"
assay_result = "4.40 to 5.00"

[[record]]
compound = "Cc1c(C[C@H](C)N)sc2c(NCc3cccs3)c(F)nnc12"
assay_result = "6.30 to 7.00"

[[record]]
compound = "C[C@H](N)Cc1sc2c(N[C@H](C)c3cccs3)cnnc2c1Br"
assay_result = "4.40 to 5.00"

[[record]]
compound = "C[C@H](N)Cc1sc2c(NCc3cccs3)cnnc2c1Br"
assay_result = "6.30 to 7.00"


[in] GET /values?readout=pIC50&item= Clc1csc2c(NCc3cccs3)cnnc12
[out] 4.40 to 5.00

[in] GET /values?readout=pIC50&item= Cc1c(C[C@H](C)N)sc2c(Nc3cccs3)cnnc12
[out] 4.40 to 5.00

[in] GET /values?readout=pIC50&item= Cc1c(C[C@@H](N)CCO)sc2c(NCc3ccco3)cnnc12
[out] 5.30 to 6.30

[in] GET /values?readout=pIC50&item= Cc1c(C[C@H](C)N)sc2c(NCc3ccsc3F)cnnc12
[out] 5.00 to 5.30

[in] GET /values?readout=pIC50&item= Cc1c(CO)sc2c(NCc3cccs3)cnnc12
[out] 4.40 to 5.00

[in] GET /values?readout=pIC50&item= Cc1c(C[C@@H](N)CO)sc2c(NCc3sccc3F)cnnc12
[out] 4.40 to 5.00

[in] GET /values?readout=pIC50&item= Cc1c(CC(N)C2COC2)sc2c(NCc3cccs3)cnnc12 (stereo not drawn)
[out] 5.00 to 5.30

---

Catalogue of IC50 values
- Test system: ATXN3 transcripts containing exon 4 (E4E5)
- experimental.protocol: ATXN3 quantitative splicing assay (qPCR, SK-N-MC cells)
- Type: cell-based
- assay.setup: Homo sapiens, 24 h treatment, qPCR E4E5 primers/probe, read-out: ATXN3 Potency - Splicing E4E5 IC50

[[record]]
compound_smiles = "C=C(C)Cc1sc2c(NCc3ccco3)cnnc2c1C"
system_tested = "ATXN3 transcripts containing exon 4 (E4E5)"
assay_result = "10 to 40 µM"

[[record]]
compound_smiles = "C[C@H](N)Cc1sc2c(NCc3cccs3)cnnc2c1C#N"
system_tested = "ATXN3 transcripts containing exon 4 (E4E5)"
assay_result = "0.501 to 5 µM"

[[record]]
compound_smiles = "Cc1c(C[C@@H](N)[C@H](C)F)sc2c(NCc3cccs3)cnnc12"
system_tested = "ATXN3 transcripts containing exon 4 (E4E5)"
assay_result = "0.101 to 0.5 µM"

[[record]]
compound_smiles = "Cc1c(C[C@@H](N)[C@@H](C)F)sc2c(NCc3cccs3)cnnc12"
system_tested = "ATXN3 transcripts containing exon 4 (E4E5)"
assay_result = "0.501 to 5 µM"

[[record]]
compound_smiles = "Cc1c(C[C@@H](N)CC2CC2)sc2c(NCc3ccco3)cnnc12"
system_tested = "ATXN3 transcripts containing exon 4 (E4E5)"
assay_result = "0.501 to 5 µM"

[[record]]
compound_smiles = "C[C@H](N)Cc1cc2nncc(NCc3cccs3)c2s1"
system_tested = "ATXN3 transcripts containing exon 4 (E4E5)"
assay_result = "0.501 to 5 µM"

[[record]]
compound_smiles = "Cc1c(C[C@@H](N)C[C@H]2CC2(F)F)sc2c(NCc3cccs3)cnnc12"
system_tested = "ATXN3 transcripts containing exon 4 (E4E5)"
assay_result = "10 to 40 µM"


Turning now to a further record.
[in] GET /values?readout=IC50&item= COc1ccc(CNc2cnnc3c(C)c(C[C@H](C)N)sc23)s1
[out] 10 to 40 µM
